Target: Vascular endothelial growth factor receptor 3 (Homo sapiens)
Settings: at 0.1 µM
Description: GSK_PKIS: FLT4 mean inhibition at 0.1 uM [Nanosyn]
Experimental Readout: inhibition (%)
Give just the numeric value; % need not be written.

Guide cases for inhibition, answers given:
>>> recorded_number("c1ccc(-c2n[nH]cc2-c2ccnc(-c3ccc(OCCn4ccnc4)cc3)c2)nc1")
5.33
>>> recorded_number("CS(=O)(=O)CCNCc1ccc(-c2ccc3ncnc(Nc4ccc(OCc5ccccc5)cc4)c3c2)o1")
-0.25
>>> recorded_number("Cn1c(-c2nonc2N)nc2cnccc21")
2.31
>>> recorded_number("CCS(=O)(=O)c1ccc(OC)c(Nc2ncc(-c3cccc(C(C)=O)c3)o2)c1")
10.7
>>> recorded_number("CS(=O)(=O)CCNCc1ccc(-c2ccc3ncnc(Nc4ccc(OCc5cccc(C(F)(F)F)c5)cc4)c3c2)o1")
8.65

Value lookup for inhibition; key = COC(=O)Nc1nc2ccc(Oc3ccc(NC(=O)Nc4cc(C(F)(F)F)ccc4F)cc3)cc2s1
10.4

Value lookup for inhibition; key = CN(c1ccc(NC(=O)NCCN2CCOCC2)cc1)c1ccnc(Nc2ccc(CS(C)(=O)=O)cc2)n1
4.1

Value lookup for inhibition; key = COc1ccc2ncn(-c3cc(O[C@H](C)c4ccccc4C(F)(F)F)c(C(N)=O)s3)c2c1
1.9

Value lookup for inhibition; key = COc1ccc(-c2nn3ncccc3c2-c2ccnc(Nc3ccc(F)c(F)c3)n2)cc1
4.09
